Source of measurements: paper PMC8037182

# Tested on: Hela cell line
# measurement_protocol: Cytotoxicity MTS assay, Hela cell line;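 further: blank control wells received 0.025% DMSO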
# Assay type: cell-based
# applied_conditions: Hela cell line, MTS, 100μM, third assay
reported_endpoint: OD490 value, Well 2
Hey, just send me the number, nothing else.

Some solved cases for reference:
[
  {
    "compound": "CCOC(=O)c1c(C2NC(=O)NC(C)=C2C(=O)Nc2ccccc2C)[nH]c(C(=O)OC)c1C (centres unmarked) [D2]",
    "reported_endpoint": "OD490 value, Well 2",
    "reported_measurement": 2.0123
  },
  {
    "compound": "CCOC(=O)c1c(C2NC(=O)NC(C)=C2C(=O)Nc2ccccc2OC)[nH]c(C(=O)OC)c1C (centres unmarked) [D1]",
    "reported_endpoint": "OD490 value, Well 2",
    "reported_measurement": 1.8426
  },
  {
    "compound": "CCOC(=O)c1[nH]c(C2NC(=S)NC(C)=C2C(=O)OC)c(C(=O)OCC)c1C (centres unmarked) [D12]",
    "reported_endpoint": "OD490 value, Well 2",
    "reported_measurement": 2.3324
  },
  {
    "compound": "CCOc1ccccc1C1NC(=S)NC(C)=C1C(=O)Nc1ccc(Cl)cc1 (centres unmarked) [C9]",
    "reported_endpoint": "OD490 value, Well 2",
    "reported_measurement": 1.1136
  },
  {
    "compound": "CCOC(=O)c1[nH]c(C2NC(=O)NC(C)=C2C(=O)Nc2ccc(Cl)cc2)c(C(=O)OCC)c1C (centres unmarked) [D7]",
    "reported_endpoint": "OD490 value, Well 2",
    "reported_measurement": 1.9033
  },
  {
    "compound": "CCOC(=O)c1c(C2NC(=O)NC(C)=C2C(=O)Nc2ccccc2)[nH]c(C(=O)OC)c1C (centres unmarked) [D10]",
    "reported_endpoint": "OD490 value, Well 2",
    "reported_measurement": 1.6988
  }
]

The compound listed as CCOC(=O)c1[nH]c(C2NC(=O)NC(C)=C2C(=O)Nc2ccccc2OC)c(C(=O)OC)c1C (centres unmarked) [D3] shows OD490 value, Well 2 equal to 1.8247

The compound listed as CCOC(=O)c1[nH]c(C2NC(=O)NC(C)=C2C(=O)Nc2ccccc2C)c(C(=O)OC)c1C (centres unmarked) [D4] shows OD490 value, Well 2 equal to 1.9478

###

Entries and their measured OD490 Mean follow.
# Tested on: Caco-2 cell line
# measurement_protocol: Cytotoxicity MTS assay, Caco-2 cell line
# Type: cell-based
# applied_conditions: 25μM; third assay; Caco-2 cell line
Hey, just send me the number, nothing else.

[
  {
    "molecule": "CCOC(=O)c1c(C2NC(=O)NC(C)=C2C(=O)Nc2ccccc2)[nH]c(C(=O)OC)c1C (stereo not shown)",
    "OD490 Mean": 0.5321
  },
  {
    "molecule": "CCOC(=O)c1c(C2NC(=O)NC(C)=C2C(=O)Nc2ccccc2OC)[nH]c(C(=O)OC)c1C (stereo not shown) [D1]",
    "OD490 Mean": 0.5866
  },
  {
    "molecule": "CCOC(=O)c1[nH]c(C2NC(=O)NC(C)=C2C(=O)Nc2ccc(Cl)cc2)c(C(=O)OCC)c1C (stereo not shown)",
    "OD490 Mean": 0.5181
  },
  {
    "molecule": "CCOC(=O)c1[nH]c(C2NC(=S)NC(C)=C2C(=O)OC)c(C(=O)OCC)c1C (stereo not shown)",
    "OD490 Mean": 0.5839
  },
  {
    "molecule": "CCOC(=O)C1=C(C)NC(=S)NC1c1cccc(O)c1 (stereo not shown) [Monastrol, monastrol, reference compound]",
    "OD490 Mean": 0.5678
  },
  {
    "molecule": "CCOC(=O)c1c(C2NC(=O)NC(C)=C2C(=O)Nc2ccccc2C)[nH]c(C(=O)OC)c1C (stereo not shown) [D2]",
    "OD490 Mean": 0.6183
  },
  {
    "molecule": "COC(=O)c1[nH]c(C2NC(=S)NC(C)=C2C(=O)c2ccccc2)c(C(=O)OC)c1C (stereo not shown)",
    "OD490 Mean": 0.5570
  },
  {
    "molecule": "CCOC(=O)c1[nH]c(C2NC(=O)NC(C)=C2C(=O)Nc2ccccc2OC)c(C(=O)OC)c1C (stereo not shown)",
    "OD490 Mean": 0.6888
  }
]

The molecule listed as CCOc1ccccc1C1NC(=S)NC(C)=C1C(=O)Nc1ccc(Cl)cc1 (stereo not shown) shows OD490 Mean equal to 0.6041

The molecule listed as CCOC(=O)c1[nH]c(C2NC(=O)NC(C)=C2C(=O)Nc2ccccc2C)c(C(=O)OC)c1C (stereo not shown) shows OD490 Mean equal to 0.5111
